B1: NELF-E aptamer (parent)
chain: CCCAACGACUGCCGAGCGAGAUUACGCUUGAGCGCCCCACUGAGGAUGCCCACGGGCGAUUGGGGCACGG

Variants of: B1
ASSAY: HiTS-RAP
COND: with NELF-E (Drosophila)
METRIC: pKd
Answers are plain numbers, as −log10 of the molar value.

# example entries with known answers
{"MUTATION LABEL": "A5G G18A", "pKd": 8.29}
{"MUTATION LABEL": "A8U C13G", "pKd": 8.20}

# per-item lookup of pKd; items listed below
1. A4G A46G
2. A5U C13G
3. A5G G63U
4. U29C U61A

## Result
1. 7.42
2. 8.26
3. 7.92
4. 7.42
